- ASSAY REMARKS: Stability in human plasma/PBS 1:2 v/v
- Assay type: in vitro ADME
- MEASUREMENT SETUP: human blood plasma/PBS 1:2 v/v, pH 7.4, 37 °C, 6 h, read-out: % intact compound in plasma
- Experimental: The proteolytic stabilities of 13 and 18 were investigated in human blood plasma/PBS (136.9 mM NaCl, 2.68 mM KCl, 5.62 mM Na2HPO4, 1.09 mM NaH2PO4, and 1.47 mM KH2PO4, pH 7.4) 1:2 v/v according to a described procedure[38] with the following modifications: 5 mM stock solutions in EtOH/10 mM aqueous HCl 1:1 v/v were used for the addition of the peptides to plasma/PBS 1:2 v/v. […]
ATTRIBUTE MEASURED: remaining at 6 h, 80 μM

1) CCC(=O)NCCCCNC(=O)NC(=N)NCCC[C@H](NC(=O)[C@@H]1CCCN1C(=O)[C@@H](NC(=O)CCc1cn(CCCNC(=O)CCC#Cc2ccc3c(c2)C(C)(C)C2=C4C=C5C6=[N+](CCC5OC4CCN23)c2ccc(S(=O)(=O)[O-])cc2C6(C)C)nn1)C1CCNCC1)C(=O)N[C@@H](CCCNC(=N)N)C(=O)N1CCC[C@H]1C(=O)N[C@H](C(=O)N[C@H](C(=O)N[C@@H](CC(C)C)C(=O)O)[C@@H](C)CC)C(C)(C)c1ccc(O)cc1 (some centres unmarked) [Compound 18] | 90%
2) CCC(=O)NCCCCNC(=O)N=C(N)NCCC[C@H](NC(=O)[C@@H]1CCCN1C(=O)[C@@H](NC(=O)CCc1cn(CCCNC(=O)c2ccc(-c3c4ccc(=[N+](C)C)cc-4oc4cc(N(C)C)ccc34)c(C(=O)[O-])c2)nn1)C1CCNCC1)C(=O)N[C@@H](CCCNC(=N)N)C(=O)N1CCC[C@H]1C(=O)N[C@@H](Cc1ccc(O)cc1)C(=O)N[C@H](C(=O)N[C@@H](CC(C)C)C(=O)O)[C@@H](C)CC [Compound 13] | > 99%
